Attribution: patent US9193720B2

Assignment: determine reported pEC50 for the given compounds.
- Tested on: NL-RLuc virus
- ASSAY_NOTES: Inhibition of HIV Replication (NL-RLuc luciferase reporter virus in MT-2 cells)
- Assay type: cell-based
- ASSAY_CONTEXT: Human immunodeficiency virus 1, MT2, 120 h
One number for each entry, as −log10 of the molar value.

For every listed record, write down its pEC50.
1. COc1ccc(CCOc2ccc(-c3c(C)nc(C)c([C@H](OC(C)(C)C)C(=O)O)c3N3CCC(C)(C)CC3)cc2)cc1
2. COc1cccc(CCOc2ccc(-c3c(C)nc(C)c([C@H](OC(C)(C)C)C(=O)O)c3N3CCC(C)(C)CC3)cc2OCCc2cccc(OC)c2)c1
3. CCOc1ccc(-c2c(C)nc(C)c([C@H](OC(C)(C)C)C(=O)O)c2N2CCC(C)(C)CC2)cc1F

Result:
[8.40, 7.85, 7.36]
